# Test system: Jurkat
# protocol_notes: Antiproliferative activity against human Jurkat cells assessed as inhibition of cell proliferation measured after 48 hrs by CCK8 assay
# Type: functional, cell-based
GI50 reference

In the examples that follow, each entry is paired with its recorded GI50.
[[record]]
structure_as_smiles = "CN1CCN(c2ccc(Nc3ncc(Cl)c(Nc4ccccc4)n3)nc2)CC1"
test_result = "> 100 µM"

[[record]]
structure_as_smiles = "COc1cccc(CNc2nc(Nc3ccc(N4CCN(C)CC4)cn3)ncc2Cl)c1"
test_result = "73.4 µM"

[[record]]
structure_as_smiles = "Cc1ccccc1Nc1nc(NCCc2cccnc2)ncc1Cl"
test_result = "> 100 µM"

[[record]]
structure_as_smiles = "Cc1ccccc1Nc1nc(NCCc2ccccn2)ncc1Cl"
test_result = "> 100 µM"

[[record]]
structure_as_smiles = "CN1CCN(c2ccc(Nc3ncc(Cl)c(NCc4ccc(F)cc4)n3)nc2)CC1"
test_result = "> 100 µM"

[[record]]
structure_as_smiles = "COc1ccc(Nc2nc(Nc3ccc(N4CCN(C)CC4)cn3)ncc2Cl)cc1"
test_result = "11.2 µM"

[[record]]
structure_as_smiles = "Cc1ccccc1Nc1nc(NCCc2ccccc2)ncc1Cl"
test_result = "> 100 µM"

[[record]]
structure_as_smiles = "CCc1ccc(Nc2nc(Nc3ccc(N4CCN(C)CC4)cn3)ncc2Cl)cc1"
test_result = "11.1 µM"

[[record]]
structure_as_smiles = "CN1CCN(c2ccc(Nc3ncc(Cl)c(NCCc4ccccc4F)n3)nc2)CC1"
test_result = "14.3 µM"

[[record]]
structure_as_smiles = "Cc1cc(C)c(Nc2nc(Nc3ccc(N4CCN(C)CC4)cn3)ncc2Cl)c(C)c1"
test_result = "7.6 µM"


Read the entry "CC(C)c1ccc(Nc2nc(Nc3ccc(N4CCN(C)CC4)cn3)ncc2Cl)cc1" and write its reported GI50. 7.53 µM

Read the entry "Cc1ccccc1Nc1nc(NCc2ccccc2)ncc1Cl" and write its reported GI50. > 100 µM

Read the entry "Cc1ccccc1Nc1nc(Nc2ccc(N3CCN(C)CC3)cc2)ncc1Cl" and write its reported GI50. 13.7 µM

Read the entry "Cc1ccccc1Nc1nc(Nc2ccc(N3CCOCC3)cc2)ncc1Cl" and write its reported GI50. 8.36 µM

Read the entry "Cc1ccccc1Nc1nc(NCc2ccco2)ncc1Cl" and write its reported GI50. > 100 µM

Read the entry "CC(C)c1cccc(Nc2nc(Nc3ccc(N4CCN(C)CC4)cn3)ncc2Cl)c1" and write its reported GI50. 12.2 µM

Read the entry "COc1ccc(CCNc2nc(Nc3ccc(N4CCN(C)CC4)cn3)ncc2Cl)cc1" and write its reported GI50. > 100 µM

Read the entry "COc1cccc(Nc2nc(Nc3ccc(N4CCN(C)CC4)cn3)ncc2Cl)c1" and write its reported GI50. 15.8 µM

Read the entry "Cc1ccccc1Nc1nc(Nc2ccccn2)ncc1Cl" and write its reported GI50. 20.1 µM

Read the entry "Cc1ccccc1Nc1nc(NCc2ccncc2)ncc1Cl" and write its reported GI50. > 100 µM

Read the entry "CCN1CCN(c2ccc(Nc3ncc(Cl)c(Nc4ccccc4C)n3)cc2)CC1" and write its reported GI50. 2.06 µM

Read the entry "Cc1ccccc1Nc1nc(Nc2ccc(N3CCCCC3)cc2)ncc1Cl" and write its reported GI50. > 100 µM

Read the entry "Cc1ccccc1Nc1nc(Nc2ccc(N3CCNCC3)cn2)ncc1Cl" and write its reported GI50. 7.87 µM
